# experimentalSystem: F508delCFTR (Homo sapiens, UniProt P13569, DEL508-508)
# Construct: expressed in transfected cells; host or cells: CFBE41o- human lung derived epithelial cells (CFBE41o-F508delCFTR-HRP), doxycycline-inducible
# Sequence (P13569 with tags, fused parts or gaps DEL508-508): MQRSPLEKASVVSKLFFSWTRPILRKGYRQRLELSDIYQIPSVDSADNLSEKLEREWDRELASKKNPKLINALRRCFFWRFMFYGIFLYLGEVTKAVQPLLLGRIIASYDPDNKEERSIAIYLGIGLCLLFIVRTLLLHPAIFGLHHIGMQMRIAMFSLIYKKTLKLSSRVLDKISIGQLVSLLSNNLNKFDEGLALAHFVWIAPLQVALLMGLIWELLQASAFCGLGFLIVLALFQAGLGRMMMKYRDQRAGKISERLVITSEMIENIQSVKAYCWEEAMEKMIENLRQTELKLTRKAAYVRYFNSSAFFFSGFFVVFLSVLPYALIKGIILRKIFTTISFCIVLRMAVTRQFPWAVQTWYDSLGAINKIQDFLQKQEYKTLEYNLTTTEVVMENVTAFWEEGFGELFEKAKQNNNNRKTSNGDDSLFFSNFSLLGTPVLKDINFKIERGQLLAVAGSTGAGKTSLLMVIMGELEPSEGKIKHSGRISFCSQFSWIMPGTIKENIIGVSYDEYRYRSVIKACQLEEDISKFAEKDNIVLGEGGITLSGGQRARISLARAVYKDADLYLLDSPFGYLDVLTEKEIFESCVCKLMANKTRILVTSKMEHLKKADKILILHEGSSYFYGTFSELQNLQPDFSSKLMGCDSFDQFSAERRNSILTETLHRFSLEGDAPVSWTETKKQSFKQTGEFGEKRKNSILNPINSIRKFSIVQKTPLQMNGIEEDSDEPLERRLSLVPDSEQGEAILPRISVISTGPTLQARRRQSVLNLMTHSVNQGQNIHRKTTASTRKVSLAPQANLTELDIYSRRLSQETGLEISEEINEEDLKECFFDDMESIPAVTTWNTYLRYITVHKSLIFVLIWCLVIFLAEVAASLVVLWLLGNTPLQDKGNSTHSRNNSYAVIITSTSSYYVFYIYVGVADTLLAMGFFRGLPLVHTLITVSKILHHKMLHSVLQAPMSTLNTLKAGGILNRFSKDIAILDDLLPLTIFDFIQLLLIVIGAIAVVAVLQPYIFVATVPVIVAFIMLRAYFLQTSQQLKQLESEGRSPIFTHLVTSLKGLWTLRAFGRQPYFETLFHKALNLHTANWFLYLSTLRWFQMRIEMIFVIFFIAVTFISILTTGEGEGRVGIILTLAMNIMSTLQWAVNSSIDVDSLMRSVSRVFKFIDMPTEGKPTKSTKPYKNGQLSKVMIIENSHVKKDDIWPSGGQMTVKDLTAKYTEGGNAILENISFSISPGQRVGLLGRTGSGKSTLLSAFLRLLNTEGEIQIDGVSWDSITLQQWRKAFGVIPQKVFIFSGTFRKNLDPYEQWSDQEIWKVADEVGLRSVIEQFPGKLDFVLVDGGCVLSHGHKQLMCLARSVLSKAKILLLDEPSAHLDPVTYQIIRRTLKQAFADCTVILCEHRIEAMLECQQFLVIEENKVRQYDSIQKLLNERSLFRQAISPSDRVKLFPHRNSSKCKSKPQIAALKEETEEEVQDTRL
# protocolSummary: Cell Surface Expression-Horse Radish Peroxidase (CSE-HRP) Assay
# Type: cell-based
# reportedConditions: test compound without co-corrector; read-out: EC50 (without co-corrector)
pEC50: −log10 of the molar value.
readout: pEC50

QUERY: Form field: reported pEC50 of O=C(NS(=O)(=O)c1cccc2c1CCCN2)C1(c2cc(C3CCC3)cnc2N2CCCC2)CC1 [Example GI-31]
RESULT: > 5.52

QUERY: Form field: reported pEC50 of CC(C)Oc1ncccc1C1(C(=O)NS(=O)(=O)c2cccc3ncccc23)CC1 [GII-3]
RESULT: 5.00 to 5.52

QUERY: Form field: reported pEC50 of CCc1cnc(N2CCC(OC(C)C)CC2)c(C2(C(=O)NS(=O)(=O)c3cccc4nc(C)ccc34)CC2)c1 [GII-55]
RESULT: 5.00 to 5.52

QUERY: Form field: reported pEC50 of CCc1cnc(OCCOC)c(C2(C(=O)NS(=O)(=O)c3cccc4ncccc34)CC2)c1 [Example GI-112]
RESULT: 5.00 to 5.52

QUERY: Form field: reported pEC50 of COCCOc1ncc(C)cc1C1(C(=O)NS(=O)(=O)c2cccc3[nH]ccc23)CC1 [GII-53]
RESULT: 5.00 to 5.52

QUERY: Form field: reported pEC50 of CCc1ccc(OC(C)C)c(C2(C(=O)NS(=O)(=O)c3cccc4nc(C)ccc34)CC2)n1 [Example GI-54]
RESULT: 5.00 to 5.52

QUERY: Form field: reported pEC50 of COc1nc(N)ccc1C1(C(=O)NS(=O)(=O)c2cccc3ncccc23)CC1 [GIII-30]
RESULT: < 5.00

QUERY: Form field: reported pEC50 of Cc1ccc2c(S(=O)(=O)NC(=O)C3(c4cc(N5CCCC5)cnc4OCC(C)C)CC3)cccc2n1 [Example GI-69]
RESULT: > 5.52

QUERY: Form field: reported pEC50 of CCc1cnc(N(C)C)c(C2(C(=O)NS(=O)(=O)c3cccc4[nH]ccc34)CC2)c1 [GII-49]
RESULT: 5.00 to 5.52

QUERY: Form field: reported pEC50 of CCOc1ncc(C2CCC2)cc1C1(C(=O)NS(=O)(=O)c2cccc3nc(C)ccc23)CC1 [Example GI-115]
RESULT: > 5.52

QUERY: Form field: reported pEC50 of CC(C)Oc1ccc(C2CCC2)nc1C1(C(=O)NS(=O)(=O)c2cccc3[nH]ccc23)CC1 [Example GI-38]
RESULT: > 5.52

QUERY: Form field: reported pEC50 of Cc1ccc2c(S(=O)(=O)NC(=O)C3(c4cc(N5CCC5)cnc4OC(C)C)CC3)cccc2n1 [Example GI-84]
RESULT: 5.00 to 5.52

QUERY: Form field: reported pEC50 of COc1cnc(OCC2CC2)c(C2(C(=O)NS(=O)(=O)c3cccc4nc(C)ccc34)CC2)c1 [Example GI-92]
RESULT: > 5.52

QUERY: Form field: reported pEC50 of Cc1ccc2c(S(=O)(=O)NC(=O)C3(c4cc(C5CC5)cnc4OC(C)C)CC3)cccc2n1 [Example GI-60]
RESULT: > 5.52

QUERY: Form field: reported pEC50 of O=C(NS(=O)(=O)c1cccc2c1CCCN2)C1(c2ccc(C(F)(F)F)nc2Cl)CC1 [GIII-28]
RESULT: < 5.00

QUERY: Form field: reported pEC50 of Cc1ccc2c(S(=O)(=O)NC(=O)C3(c4cc(C5CCC5)cnc4N4CCCC4)CC3)cccc2n1 [Example GI-29]
RESULT: > 5.52
